Molecular target: Mcl-1 (UniProt P97287+Q07820)
Construct: amino acid residues 152-189 of mouse Mcl-1 fused with amino acid residues 209-327 of; 8 x His (N); TEV site (N); made in house; host or cells: E. coli BL21(DE3)pLysS
Sequence (P97287 152-189 limits assumed): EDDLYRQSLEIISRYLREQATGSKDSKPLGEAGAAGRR
Sequence (Q07820 209-327 limits assumed): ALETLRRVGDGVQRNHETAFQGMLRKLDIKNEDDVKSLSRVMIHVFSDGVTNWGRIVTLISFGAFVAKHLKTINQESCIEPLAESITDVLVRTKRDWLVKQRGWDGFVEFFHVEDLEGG
Test: Competitive fluorescence anisotropy (FA) assay, FITC-NoxaB displacement from Mcl-1
Format: binding
Conditions: Table 2; inhibition of binding of 5 nM FITC-NoxaB to 10 nM Mcl-1; PBS, 0.05% Tween-20, pH 7.4; non-linear regression of at least three experiments; errors = transformed greater extreme of standard error; SEM; read-out: FA IC50
PROPERTY NAME: IC50 (nM)
Write the number in nM without appending the unit.

Dear colleague, please send me the reported IC50 for COC(=O)[C@H](Cc1cn(Cc2ccccc2F)nn1)NC(=O)OCC1c2ccccc2-c2ccccc21 when you can. 1700

Identify the reported IC50 for the following entry. COC(=O)C(Cc1cn(Cc2ccc(C#N)cc2)nn1)NC(=O)OCC1c2ccccc2-c2ccccc21 (stereo not drawn) 249

Query IC50 for COC(=O)C(Cc1cn(Cc2ccc(Cl)cc2)nn1)NC(=O)OCC1c2ccccc2-c2ccccc21 (stereo not drawn) 1260

Provide measured IC50 value, entry: COC(=O)[C@H](Cc1cn(Cc2ccccc2C)nn1)NC(=O)OCC1c2ccccc2-c2ccccc21 2210

Indicate the recorded IC50 value for this molecule: COC(=O)C(Cc1cn(C23CC4CC(CC(C4)C2)C3)nn1)NC(=O)OCC1c2ccccc2-c2ccccc21 (stereo not drawn) 186

Give the measured IC50 for Fc1ccccc1Cn1cc(C2=CCCCC2)nn1 217
